biological target: Ole1 (Saccharomyces cerevisiae); construct: expressed in transfected cells; host or cells: S. cerevisiae ole1Δ strain (W303 pdr1Δ pdr3Δ background), plasmid pRS316 with TDH3 promoter and CYC1 terminator; test: Growth inhibition of yeast strain expressing Ole1 as sole desaturase; assay type: cell-based; details: yeast strain expressing Ole1 as sole desaturase
Sequence (P21147 whole entry): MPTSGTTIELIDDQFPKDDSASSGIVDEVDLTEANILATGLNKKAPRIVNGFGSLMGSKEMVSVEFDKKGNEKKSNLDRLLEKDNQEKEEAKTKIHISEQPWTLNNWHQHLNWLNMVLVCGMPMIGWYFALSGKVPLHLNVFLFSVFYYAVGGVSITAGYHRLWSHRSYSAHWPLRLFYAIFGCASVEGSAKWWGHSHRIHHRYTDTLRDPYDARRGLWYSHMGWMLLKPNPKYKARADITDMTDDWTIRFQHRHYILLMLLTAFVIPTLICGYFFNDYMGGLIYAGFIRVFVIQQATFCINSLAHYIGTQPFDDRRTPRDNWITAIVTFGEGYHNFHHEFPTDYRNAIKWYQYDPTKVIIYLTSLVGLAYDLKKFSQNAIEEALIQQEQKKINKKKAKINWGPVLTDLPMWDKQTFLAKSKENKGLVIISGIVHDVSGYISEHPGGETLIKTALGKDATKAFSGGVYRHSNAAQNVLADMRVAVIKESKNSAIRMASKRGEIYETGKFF
Catalogue of OLE1 % Max Inhibition values
Quick reminder: number only, in %, skip the unit.

Example cases with answers are listed next.
molecule=COc1ccc(-c2noc(C3CCN(C(=O)[C@@H](CO)NC(=O)c4ccccc4)CC3)n2)cc1OC endpoint_value=93.51
molecule=COc1ccc(-c2nccc(C3CCN(C(=O)CNC(=O)c4ccccc4)CC3)n2)cc1OC endpoint_value=113.54
molecule="Cc1nn(C)c2cc(-c3noc(C4CCN(C(=O)C5CNC(=O)C5)CC4)n3)ccc12 (stereo not shown)" endpoint_value=73.29
molecule=Cc1nn(C)c2cc(-c3noc(C4CCN(C(=O)[C@H]5CN(c6ccccc6)C(=O)O5)CC4)n3)ccc12 endpoint_value=99.75
molecule="Cc1noc2cc(-c3noc(C4CCN(C(=O)C5CC(=O)N(c6ccccc6)C5)CC4)n3)ccc12 (stereo not shown)" endpoint_value=73.60

Which OLE1 % Max Inhibition reading was recorded for the molecule COc1cc(-c2noc(C3CCN(C(=O)CNC(=O)c4ccccc4)CC3)n2)ccc1OC(F)(F)F ?
106.42

Then this molecule: CC(C)n1cc2ccc(-c3noc(C4CCN(C(=O)CNC(=O)c5ccccc5)CC4)n3)cc2n1
20.70

----------
Molecular target: SCD5 (Homo sapiens, UniProt Q86SK9)
Construct: host or cells: S. cerevisiae ole1Δ strain (W303 pdr1Δ pdr3Δ background), plasmid pRS316 with TDH3 promoter and CYC1 terminator
Sequence (Q86SK9 1-330): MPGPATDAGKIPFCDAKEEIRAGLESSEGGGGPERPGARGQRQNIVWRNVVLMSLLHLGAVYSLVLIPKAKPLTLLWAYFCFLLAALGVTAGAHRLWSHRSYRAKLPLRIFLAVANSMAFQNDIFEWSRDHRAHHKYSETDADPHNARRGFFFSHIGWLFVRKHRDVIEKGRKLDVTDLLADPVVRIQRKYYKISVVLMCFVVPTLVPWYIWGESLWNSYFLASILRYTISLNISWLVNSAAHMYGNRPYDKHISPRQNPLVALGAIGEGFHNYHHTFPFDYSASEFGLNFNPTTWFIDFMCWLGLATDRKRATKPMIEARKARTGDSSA
Experiment: Growth inhibition of humanized yeast strain expressing SCD5 as sole desaturase
Assay type: cell-based
Details: humanized yeast strain, 40 h
// assign True if IC50 falls strictly below 50 nM, else False (ties count as False)

compound=COC(=O)N1CCC(c2noc(-c3cc(C#N)c4cnn(C5COC5)c4c3)n2)CC1 assayed_target="SCD5 (Homo sapiens, UniProt Q86SK9)" assigned_class=False
compound=O=C(N1CCC(c2noc(-c3ccc4oc(=O)n(C5COC5)c4c3)n2)CC1)C1(F)CC1 assayed_target="SCD5 (Homo sapiens, UniProt Q86SK9)" assigned_class=False
compound=COC(=O)N1CC(c2noc(-c3ccc4cnn(C5COC5)c4c3)n2)C1 assayed_target="SCD5 (Homo sapiens, UniProt Q86SK9)" assigned_class=True
compound="CC(C)(C)OC(=O)N1CCC(c2noc(-c3cccc(C4CCO4)c3)n2)CC1 (centres unmarked)" assayed_target="SCD5 (Homo sapiens, UniProt Q86SK9)" assigned_class=True
compound="CC(C)(C)OC(=O)N1CCN(c2noc(-c3cccc(C4CCOC4)c3)n2)CC1 (centres unmarked)" assayed_target="SCD5 (Homo sapiens, UniProt Q86SK9)" assigned_class=True

Field: next compound
I wonder whether CC(=O)N1CC(n2ncc3ccc(-c4nc(N5CCNCC5)no4)cc32)C1 has IC50 below 50 nM. Can you tell?
False
